# Test system: PAD
# test.details: qHTS profiling for inhibitors of Plasmodium falciparum proliferation (AID 504749); also: nearly all actives have a fitted effect of over 60% in size
# test.settings: P. falciparum in erythrocytes, SYBR Green DNA, 72 h; series mostly up to 28.7 µM
Results filed as inconclusive are left out. Calls of active or inactive are those of the source. Calls follow the shape of the dose curve; as a rule, active = well fitted inhibition curve with a large enough effect; inconclusive = small, poorly fitted or top-dose-only effect; inactive = flat fitted curve, though single readings scatter.
Return exactly one item of active, inactive

Recorded results for 3 compounds are shown here.
                                   compound  assigned_category
0  CC(C)C[C@H](NC(=O)[C@@H](O)[C@H](N)Cc1ccccc1)C(=O)O             active
1  CCOC(=O)N1CCC(=C2c3ccc(Cl)cc3CCc3cccnc32)CC1             active
2                           N[C@@H]1CONC1=O           inactive

# input Identify the outcome logged in this assay for the compound shown: "O=c1n(CCCN2CCN(c3cccc(Cl)c3)CC2)nc2ccccn12"
# output inactive

Reference source: PubChem BioAssay (NCATS)
